tested on: protéine tyrosine hydroxylase (TH); test: Induction of tyrosine hydroxylase in the locus coeruleus of mice (immunodetection and image analysis of brain sections); assay type: in vivo, souris Balb/C; settings: coupe 2 du LC (sens antérieur vers postérieur); i.p. 20 mg/kg, single injection, 3 days after; % par rapport à la valeur moyenne du groupe témoin
EXPERIMENTAL_READOUT: quantité de TH au niveau du LC, coupe 2 (%)
Please give a number only; it is taken to be in %.

Record lookup: for protéine tyrosine hydroxylase (TH), what quantité de TH au niveau du LC, coupe 2 belongs to O=C1C[C@@H]2[C@H]3[C@@H](CCN2Cc2ccccc2)c2ccccc2N13 (racemic) ?
68

Record lookup: for protéine tyrosine hydroxylase (TH), what quantité de TH au niveau du LC, coupe 2 belongs to Cc1ccc2c(c1)cc1n2C(=O)C2=C1N(C)CCC2 ?
99

Record lookup: for protéine tyrosine hydroxylase (TH), what quantité de TH au niveau du LC, coupe 2 belongs to CN1CCC[C@H]2C(=O)N3c4ccccc4C[C@@H]3[C@H]21 ?
86

Record lookup: for protéine tyrosine hydroxylase (TH), what quantité de TH au niveau du LC, coupe 2 belongs to N#CCN1CCC[C@@H]2C(=O)N3c4ccccc4C[C@H]3[C@@H]21 (racemic) ?
50

Record lookup: for protéine tyrosine hydroxylase (TH), what quantité de TH au niveau du LC, coupe 2 belongs to O=C1[C@H]2CCCN[C@H]2[C@@H]2Cc3cc(F)ccc3N12 (racemic) ?
71

* * *

test system: protéine tyrosine hydroxylase (TH); assay: Induction of tyrosine hydroxylase in the locus coeruleus of mice (immunodetection and image analysis of brain sections); assay type: in vivo, souris Balb/C; details: coupe 6 du LC (sens antérieur vers postérieur); i.p. 20 mg/kg, single injection, 3 days after; % par rapport à la valeur moyenne du groupe témoin
EXPERIMENTAL_READOUT: quantité de TH au niveau du LC, coupe 6 (%)
Please give a number only; it is taken to be in %.

# input compound: O=C1C[C@@H]2[C@H]3[C@@H](CCN2Cc2ccccc2)c2ccccc2N13 (racemic) ; wanted: its quantité de TH au niveau du LC, coupe 6
52

# input compound: O=C1[C@H]2CCCN[C@H]2[C@@H]2Cc3cc(F)ccc3N12 (racemic) ; wanted: its quantité de TH au niveau du LC, coupe 6
33

# input compound: C=CCN1CCC[C@H]2C(=O)N3c4ccccc4C[C@H]3[C@@H]21 ; wanted: its quantité de TH au niveau du LC, coupe 6
29

# input compound: CCCN1CC[C@H]2c3ccccc3N3NC(=O)C[C@@H]1[C@@H]23 (racemic) ; wanted: its quantité de TH au niveau du LC, coupe 6
36

# input compound: CN1CCC[C@H]2C(=O)N3c4ccccc4C[C@@H]3[C@H]21 ; wanted: its quantité de TH au niveau du LC, coupe 6
22

# input compound: CN1CCC[C@@H]2C(=O)N3c4ccccc4C[C@H]3[C@@H]21 ; wanted: its quantité de TH au niveau du LC, coupe 6
31

# input compound: O=C1NN2c3ccccc3C[C@H]2[C@@H]2NCCC[C@H]12 (racemic) ; wanted: its quantité de TH au niveau du LC, coupe 6
17

# input compound: Cc1ccc2c(c1)cc1n2C(=O)C2=C1N(C)CCC2 ; wanted: its quantité de TH au niveau du LC, coupe 6
14

# input compound: Cc1ccc2c(c1)CC1C3=C(CCCN3C)C(=O)N21 (racemic) ; wanted: its quantité de TH au niveau du LC, coupe 6
34

# input compound: CCCN1CC[C@@H]2c3ccccc3N3NC(=O)C[C@H]1[C@@H]23 ; wanted: its quantité de TH au niveau du LC, coupe 6
27

# input compound: N#CCN1CCC[C@@H]2C(=O)N3c4ccccc4C[C@H]3[C@@H]21 (racemic) ; wanted: its quantité de TH au niveau du LC, coupe 6
26

# input compound: C=CCN1CCC[C@@H]2C(=O)N3c4ccc(OC)cc4C[C@@H]3[C@H]21 (racemic) ; wanted: its quantité de TH au niveau du LC, coupe 6
15

# input compound: CN1CCC[C@@H]2C(=O)N3c4ccc(Cl)cc4C[C@H]3[C@@H]21 (racemic) ; wanted: its quantité de TH au niveau du LC, coupe 6
29

* * *

system: protéine tyrosine hydroxylase (TH); test: Induction of tyrosine hydroxylase in the locus coeruleus of mice (immunodetection and image analysis of brain sections); type: in vivo, souris Balb/C; conditions: coupe 2 du LC (sens antérieur vers postérieur); i.p. 20 mg/kg, single injection, 3 days after; % par rapport à la valeur moyenne du groupe témoin
Could you please report measured quantité de TH au niveau du LC, coupe 2 for the items listed next?
Please give a number only; it is taken to be in %.

# input compound: Cc1ccc2c(c1)CC1C3=C(CCCN3C)C(=O)N21 (racemic) [Exemple 40] ; wanted: its quantité de TH au niveau du LC, coupe 2
96

# input compound: O=C1NN2c3ccccc3C[C@H]2[C@@H]2NCCC[C@H]12 (racemic) [Exemple 8] ; wanted: its quantité de TH au niveau du LC, coupe 2
61

# input compound: CCCN1CC[C@@H]2c3ccccc3N3NC(=O)C[C@H]1[C@@H]23 [Exemple 15] ; wanted: its quantité de TH au niveau du LC, coupe 2
75

# input compound: CN1CCC[C@@H]2C(=O)N3c4ccc(Cl)cc4C[C@H]3[C@@H]21 (racemic) [Exemple 27] ; wanted: its quantité de TH au niveau du LC, coupe 2
67

# input compound: CN1CCC[C@@H]2C(=O)N3c4ccccc4C[C@H]3[C@@H]21 [Exemple 3] ; wanted: its quantité de TH au niveau du LC, coupe 2
97

# input compound: C=CCN1CCC[C@@H]2C(=O)N3c4ccc(OC)cc4C[C@@H]3[C@H]21 (racemic) [Exemple 19] ; wanted: its quantité de TH au niveau du LC, coupe 2
48

# input compound: C=CCN1CCC[C@H]2C(=O)N3c4ccccc4C[C@H]3[C@@H]21 [Exemple 44] ; wanted: its quantité de TH au niveau du LC, coupe 2
99

# input compound: CCCN1CC[C@H]2c3ccccc3N3NC(=O)C[C@@H]1[C@@H]23 (racemic) [Exemple 17] ; wanted: its quantité de TH au niveau du LC, coupe 2
72
